tested on: male, Sprague-Dawley rats; assay: Oral delivery of insulin in rats: change in whole blood glucose after insulin plus delivery agent; assay type: in vivo, rat; settings: time 0, insulin/delivery agent = 0.5 mg/200 mg per kg, oral gavage
OBSERVATION TYPE: Percent change in whole blood glucose from baseline (negative = reduction) (%)

> print(dat)
            structure.notation         measurement.target  test.value
1    O=C(O)CCc1ccc(OCC2CC2)cc1  male, Sprague-Dawley rats       −4.64
2  COc1cc(CC(=O)O)ccc1OCC1CCC1  male, Sprague-Dawley rats        6.88
3  COc1cc(CC(=O)O)ccc1OC1CCCC1  male, Sprague-Dawley rats       11.87
4       O=C(O)c1ccccc1OCC1CCC1  male, Sprague-Dawley rats        6.37
5     O=C(O)c1ccc(OCC2CCC2)cc1  male, Sprague-Dawley rats        7.51
